Cited source: paper PMC9908594

Would you mind telling me the reported pIC50 of each entry?
Target desc: CjMQO (malate:quinone oxidoreductase from C. jejuni) (Campylobacter jejuni)
Sequence (P56954 whole entry): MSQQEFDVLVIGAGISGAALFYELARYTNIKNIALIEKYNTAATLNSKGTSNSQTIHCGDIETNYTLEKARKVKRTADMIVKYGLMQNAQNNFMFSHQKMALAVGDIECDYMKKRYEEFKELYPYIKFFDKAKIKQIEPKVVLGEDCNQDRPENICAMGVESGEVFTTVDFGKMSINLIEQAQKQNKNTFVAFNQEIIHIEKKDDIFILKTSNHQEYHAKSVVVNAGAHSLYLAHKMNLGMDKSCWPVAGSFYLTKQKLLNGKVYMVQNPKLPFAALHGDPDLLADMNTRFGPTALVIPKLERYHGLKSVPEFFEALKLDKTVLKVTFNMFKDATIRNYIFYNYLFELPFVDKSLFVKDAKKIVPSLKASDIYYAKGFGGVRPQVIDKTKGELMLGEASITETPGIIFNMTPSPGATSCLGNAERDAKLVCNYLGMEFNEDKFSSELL
The read-out pIC50 is expressed as -log10 of concentration in moles per litre.

### Prompt Form field: reported pIC50 of CCCCCCCCCCCC1=C(O)C(=O)C=C(O)C1=O [Embelin, 2,5-dihydroxy-3-undecyl-p-benzoquinone]
### Response 7.06

### Prompt Form field: reported pIC50 of CC(C)=CCC/C(C)=C/CC/C(C)=C/Cc1c(O)c2ccccc2oc1=O
### Response 7.74
